The reader will find reported IC50 values listed item by item below.
- SUBJECT_OF_TEST: T1, cloned human somatostatin receptor 1 (human, UniProt P30872 1-391)
- T1 construct: whole, on cells; Tested as cell membrane preparations; also called SSTR-1; SSTR1
- ASSAY_EXPLANATION: inhibition of SRIF binding, cloned human SSTR-1; head says nM, values evidently molar
Bridges are numbered along the chain shown (N, C = ends). Where no end group is shown, it is not given here. [ ]: non-standard residue; d: D form. Gly(S2) = not defined here

{"BINDER": "[dF]CFW[dW]KTF[Gly(S2)]-NH2 (disulfide 2-9; reading uncertain, Backbone to side chain cyclized nonapeptide) [PTR 3207]", "IC50": "0.1 µM"}
{"BINDER": "CFW[dW]KTF[Gly(S2)]-NH2 (disulfide 1-8; reading uncertain, Backbone to side chain cyclized octapeptide) [PTR 3197]", "IC50": "0.01 µM"}
